# system: T1, human CD47, full length, on transfected cells (human, UniProt Q08722 19-323)
# T1 construct: whole, on cells; also called CHOK1-hCD47
# protocol-description: FACS CHOK1-hCD47; Ab 0.32 nM
endpoint-name: mean fluorescence intensity
I only need the number, thanks.

Quick one: mean fluorescence intensity of 20H4G5 (antibody, V domains shown, Murine hybridoma antibody purified on protein G) VH: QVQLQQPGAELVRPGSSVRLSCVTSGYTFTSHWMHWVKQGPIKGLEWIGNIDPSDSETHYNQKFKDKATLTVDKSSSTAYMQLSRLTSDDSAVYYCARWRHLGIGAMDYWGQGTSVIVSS VL: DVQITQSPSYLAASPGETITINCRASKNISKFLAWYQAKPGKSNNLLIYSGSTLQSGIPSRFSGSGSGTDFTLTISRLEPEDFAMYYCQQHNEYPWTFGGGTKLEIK ?
2980

This collection of values is drawn from patent US20220017615A1.
